Molecular target: Serine/threonine-protein kinase PAK 1 (Homo sapiens, UniProt Q13153)
Sequence (Q13153 whole entry): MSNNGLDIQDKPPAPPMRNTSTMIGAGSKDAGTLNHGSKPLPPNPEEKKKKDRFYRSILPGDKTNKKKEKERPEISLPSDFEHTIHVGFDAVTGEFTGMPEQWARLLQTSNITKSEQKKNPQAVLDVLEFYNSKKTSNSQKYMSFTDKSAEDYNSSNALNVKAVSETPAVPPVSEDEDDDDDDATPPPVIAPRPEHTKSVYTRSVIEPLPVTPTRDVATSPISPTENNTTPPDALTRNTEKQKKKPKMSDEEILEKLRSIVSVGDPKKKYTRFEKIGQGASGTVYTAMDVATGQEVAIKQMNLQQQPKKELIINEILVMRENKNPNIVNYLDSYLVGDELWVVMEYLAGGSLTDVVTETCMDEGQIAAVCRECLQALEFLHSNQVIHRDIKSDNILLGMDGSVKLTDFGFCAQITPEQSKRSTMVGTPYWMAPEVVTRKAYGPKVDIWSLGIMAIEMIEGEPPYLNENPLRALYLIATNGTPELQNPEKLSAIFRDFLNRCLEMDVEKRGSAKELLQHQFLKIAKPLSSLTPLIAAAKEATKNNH

>  <Smiles String>
O=C(Nc1cc(C(F)(F)F)cc(C(F)(F)F)c1)N1CCC(Nc2ncnc3[nH]ncc23)CC1

>  <Result Units>
µM

>  <Limit Sign>
=

>  <IC50>
9.32

$$$$
>  <Smiles String>
O=C(Nc1cccc2ccccc12)N1CCC(Nc2ncnc3[nH]ncc23)CC1

>  <Result Units>
µM

>  <Limit Sign>
>

>  <IC50>
50

$$$$
>  <Smiles String>
O=C(c1ccc(Cl)cc1)N1CCC(Nc2ncnc3[nH]ncc23)CC1

>  <Result Units>
µM

>  <Limit Sign>
=

>  <IC50>
9.44

$$$$
>  <Smiles String>
Cc1ccccc1C(=O)N1CCC(Nc2ncnc3[nH]ncc23)CC1

>  <Result Units>
µM

>  <Limit Sign>
=

>  <IC50>
33.2

$$$$
>  <Smiles String>
Cc1cccc(C)c1NC(=O)NC1CCN(c2ncnc3[nH]ncc23)CC1

>  <Result Units>
µM

>  <Limit Sign>
=

>  <IC50>
2.16

$$$$
>  <Smiles String>
O=C(Nc1ccc(Cl)cc1Cl)N1CCC(Nc2ncnc3[nH]ncc23)CC1

>  <Result Units>
µM

>  <Limit Sign>
=

>  <IC50>
5.46

$$$$
